# pIC50 listing for each entry below
molecular target: α4β7 integrin (Homo sapiens (Human), UniProt P13612+P26010); experiment: Integrin Adhesion Assay: Protocol 1 (MAdCAM-coated plate, RPMI-8866 cells, CellTiter GLO readout); assay type: cell-based; conditions: integrin adhesion assay; determined by at least one of the assays described (protocol not specified)
Sequence (P13612 34-1032): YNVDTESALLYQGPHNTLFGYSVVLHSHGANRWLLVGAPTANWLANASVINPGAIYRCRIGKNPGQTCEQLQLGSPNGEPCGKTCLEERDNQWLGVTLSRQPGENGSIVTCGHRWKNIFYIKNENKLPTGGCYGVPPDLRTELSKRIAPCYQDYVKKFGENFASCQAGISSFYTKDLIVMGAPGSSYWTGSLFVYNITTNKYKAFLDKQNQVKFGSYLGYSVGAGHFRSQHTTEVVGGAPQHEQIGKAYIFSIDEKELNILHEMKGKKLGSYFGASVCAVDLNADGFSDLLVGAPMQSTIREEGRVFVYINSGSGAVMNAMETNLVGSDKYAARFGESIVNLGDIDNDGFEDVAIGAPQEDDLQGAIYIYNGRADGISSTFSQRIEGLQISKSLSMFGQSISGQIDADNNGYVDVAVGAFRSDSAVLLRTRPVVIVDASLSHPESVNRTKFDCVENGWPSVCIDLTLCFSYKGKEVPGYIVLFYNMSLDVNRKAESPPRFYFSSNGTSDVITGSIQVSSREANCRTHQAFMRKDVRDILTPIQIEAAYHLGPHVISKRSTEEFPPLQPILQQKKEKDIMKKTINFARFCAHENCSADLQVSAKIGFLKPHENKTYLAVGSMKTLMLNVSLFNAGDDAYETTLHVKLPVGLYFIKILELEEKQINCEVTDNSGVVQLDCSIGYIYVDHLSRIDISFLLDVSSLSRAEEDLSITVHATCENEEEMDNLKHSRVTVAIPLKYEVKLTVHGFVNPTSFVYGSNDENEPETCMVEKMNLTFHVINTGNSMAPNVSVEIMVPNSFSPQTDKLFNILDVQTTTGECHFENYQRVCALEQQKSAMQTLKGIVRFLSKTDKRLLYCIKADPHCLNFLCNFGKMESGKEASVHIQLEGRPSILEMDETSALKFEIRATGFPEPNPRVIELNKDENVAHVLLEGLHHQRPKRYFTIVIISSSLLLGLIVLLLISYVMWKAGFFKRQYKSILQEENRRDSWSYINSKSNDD
Sequence (P26010 20-798): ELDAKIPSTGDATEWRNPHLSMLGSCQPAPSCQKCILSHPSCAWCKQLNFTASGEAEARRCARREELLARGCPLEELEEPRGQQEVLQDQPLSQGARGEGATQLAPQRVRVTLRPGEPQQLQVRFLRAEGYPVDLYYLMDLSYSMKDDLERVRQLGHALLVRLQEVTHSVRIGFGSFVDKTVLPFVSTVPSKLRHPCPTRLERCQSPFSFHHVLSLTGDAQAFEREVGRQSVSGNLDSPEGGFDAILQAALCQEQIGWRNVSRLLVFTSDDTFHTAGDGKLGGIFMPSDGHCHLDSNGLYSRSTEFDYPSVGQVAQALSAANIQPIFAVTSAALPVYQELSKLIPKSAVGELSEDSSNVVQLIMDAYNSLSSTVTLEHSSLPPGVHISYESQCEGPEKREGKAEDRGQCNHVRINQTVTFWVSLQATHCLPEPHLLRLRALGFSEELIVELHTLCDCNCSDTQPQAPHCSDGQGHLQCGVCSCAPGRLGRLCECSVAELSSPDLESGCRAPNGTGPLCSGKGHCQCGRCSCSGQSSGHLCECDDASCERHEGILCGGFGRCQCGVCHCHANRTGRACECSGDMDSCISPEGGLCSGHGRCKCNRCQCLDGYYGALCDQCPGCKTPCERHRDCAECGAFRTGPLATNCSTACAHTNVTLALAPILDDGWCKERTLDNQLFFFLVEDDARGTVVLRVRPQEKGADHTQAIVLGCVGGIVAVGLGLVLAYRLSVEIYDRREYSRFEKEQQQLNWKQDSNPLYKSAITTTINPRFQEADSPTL
pIC50: −log10 of the molar value.

COMPOUND: Cn1ccc(=O)n(-c2cccc3c(C[C@H](NCc4ccccc4)C(=O)O)cccc23)c1=O
TARGET: α4β7 integrin (Homo sapiens (Human), UniProt P13612+P26010)
pIC50: < 6.00
//
COMPOUND: O=C(N[C@@H](Cc1cccc2c(-c3cccc4ccncc34)cccc12)C(=O)O)c1c(F)cc(N(CC(F)(F)F)CC(F)(F)F)cc1CN1CCCC1
TARGET: α4β7 integrin (Homo sapiens (Human), UniProt P13612+P26010)
pIC50: > 8.00
//
COMPOUND: CCOCc1cc(OC)c(-c2nccc3c(C[C@H](NC(=O)c4c(F)cc(N5CCOC[C@@H]5C(F)(F)F)cc4F)C(=O)O)cccc23)c(OC)c1
TARGET: α4β7 integrin (Homo sapiens (Human), UniProt P13612+P26010)
pIC50: > 8.00
//
COMPOUND: Cn1ccc(C(F)(F)F)c(-c2nccc3c(C[C@H](NC(=O)c4c(F)cc(NCC(F)(F)F)cc4CN4CCCC4)C(=O)O)cccc23)c1=O
TARGET: α4β7 integrin (Homo sapiens (Human), UniProt P13612+P26010)
pIC50: > 8.00
//
COMPOUND: O=C(N[C@@H](Cc1cccc2c(-c3nccc4ccncc34)cccc12)C(=O)O)c1c(F)cc(N2CCOC[C@H]2CC(F)F)cc1CN1CCOCC1
TARGET: α4β7 integrin (Homo sapiens (Human), UniProt P13612+P26010)
pIC50: > 8.00
//
COMPOUND: Cn1ccc(C(F)(F)F)c(-c2nccc3c(C[C@H](NC(=O)c4c(F)cc(N5CCOC[C@@H]5C(F)(F)F)cc4CN4CCC(F)(F)CC4)C(=O)O)cccc23)c1=O
TARGET: α4β7 integrin (Homo sapiens (Human), UniProt P13612+P26010)
pIC50: > 8.00
//
COMPOUND: Cn1ccc(=O)n(-c2cccc3c(C[C@H](NC(=O)C4(C)CCCCC4)C(=O)O)cccc23)c1=O
TARGET: α4β7 integrin (Homo sapiens (Human), UniProt P13612+P26010)
pIC50: 6.00 to 7.00
//
COMPOUND: Cn1c(=O)ccn(-c2cccc3c(C[C@H](NC(=O)c4c(F)cccc4F)C(=O)O)cccc23)c1=O
TARGET: α4β7 integrin (Homo sapiens (Human), UniProt P13612+P26010)
pIC50: 7.00 to 8.00
//
COMPOUND: CCN1CCC(C(=O)N[C@@H](Cc2cccc3c(-n4c(=O)ccn(C)c4=O)cccc23)C(=O)O)CC1
TARGET: α4β7 integrin (Homo sapiens (Human), UniProt P13612+P26010)
pIC50: < 6.00
//
COMPOUND: COc1cc(F)c(C(=O)N[C@@H](Cc2cccc3c(-n4c(=O)ccn(C)c4=O)cccc23)C(=O)O)c(F)c1
TARGET: α4β7 integrin (Homo sapiens (Human), UniProt P13612+P26010)
pIC50: 7.00 to 8.00
//
COMPOUND: Cn1ccc(C(F)(F)F)c(-c2nccc3c(C[C@H](NC(=O)c4c(F)cccc4F)C(=O)O)cccc23)c1=O
TARGET: α4β7 integrin (Homo sapiens (Human), UniProt P13612+P26010)
pIC50: > 8.00
//
COMPOUND: Cn1ccc(C(F)(F)F)c(-c2nccc3c(C[C@H](NC(=O)c4c(F)cc(N(CC(F)(F)F)CC(F)(F)F)cc4CN4CCCC4)C(=O)O)cccc23)c1=O
TARGET: α4β7 integrin (Homo sapiens (Human), UniProt P13612+P26010)
pIC50: > 8.00
//
COMPOUND: Cn1ccc(C(F)(F)F)c(-c2cccc3c(C[C@H](NC(=O)c4c(F)cc(N5CCOC[C@@H]5C(F)(F)F)cc4CN4CCOCC4)C(=O)O)cccc23)c1=O
TARGET: α4β7 integrin (Homo sapiens (Human), UniProt P13612+P26010)
pIC50: > 8.00
//
COMPOUND: Cn1ccc(=O)n(-c2cccc3c(C[C@H](NCc4ccc(N5CCOCC5)cc4)C(=O)O)cccc23)c1=O
TARGET: α4β7 integrin (Homo sapiens (Human), UniProt P13612+P26010)
pIC50: < 6.00
//
COMPOUND: Cn1ccc(=O)n(-c2cccc3c(C[C@H](NCc4c(F)cccc4F)C(=O)O)cccc23)c1=O
TARGET: α4β7 integrin (Homo sapiens (Human), UniProt P13612+P26010)
pIC50: < 6.00
//
COMPOUND: Cn1ccc(C(F)(F)F)c(-c2nccc3c(C[C@H](NC(=O)c4c(F)cc(CN5CCOCC5)cc4F)C(=O)O)cccc23)c1=O
TARGET: α4β7 integrin (Homo sapiens (Human), UniProt P13612+P26010)
pIC50: 6.00 to 7.00
//
COMPOUND: Cn1ccc(=O)n([C@H]2CCc3c(C[C@H](NC(=O)c4c(F)cccc4F)C(=O)O)cccc32)c1=O (single isomer, unassigned)
TARGET: α4β7 integrin (Homo sapiens (Human), UniProt P13612+P26010)
pIC50: 6.00 to 7.00

* * *

target: α4β7 integrin (Homo sapiens (Human), UniProt P13612+P26010); assay: Integrin Adhesion Assay: Protocol 1 (MAdCAM-coated plate, RPMI-8866 cells, CellTiter GLO readout); assay type: cell-based; details: integrin adhesion assay; determined by at least one of the assays described (protocol not specified)
OBSERVATION TYPE: IC50

STRUCTURE SMILES: CN1CCN(Cc2cc(N3CCOC[C@@H]3C(F)(F)F)cc(F)c2C(=O)N[C@@H](Cc2cccc3c(-c4c(C(F)(F)F)ccn(C)c4=O)nccc23)C(=O)O)CC1
REPORTED MEASUREMENT: < 0.01 µM

STRUCTURE SMILES: Cn1ccc(=O)n(-c2cccc3c(C[C@H](NC(=O)C4(F)CCN(CC(F)(F)F)CC4)C(=O)O)cccc23)c1=O
REPORTED MEASUREMENT: > 1 µM

STRUCTURE SMILES: Cn1ccc(=O)n(-c2cccc3c(C[C@H](NC(=O)c4cc5ncn(CC(F)(F)F)c5cc4F)C(=O)O)cccc23)c1=O
REPORTED MEASUREMENT: 0.01 to 0.1 µM

STRUCTURE SMILES: Cn1ccc(=O)n(-c2cccc3c(C[C@H](NC(=O)c4c(F)ccc(NS(=O)(=O)C(F)(F)F)c4F)C(=O)O)cccc23)c1=O
REPORTED MEASUREMENT: < 0.01 µM

STRUCTURE SMILES: CC(C)C1(C(=O)N[C@@H](Cc2cccc3c(-n4c(=O)ccn(C)c4=O)cccc23)C(=O)O)CCN(CC(F)(F)F)CC1
REPORTED MEASUREMENT: 0.01 to 0.1 µM

STRUCTURE SMILES: COC(=O)[C@H](Cc1cccc2c(-n3c(=O)ccn(C)c3=O)cccc12)NC(=O)c1c(F)cccc1CN1CCOCC1
REPORTED MEASUREMENT: 0.1 to 1 µM

STRUCTURE SMILES: O=C(N[C@@H](Cc1cccc2c(-c3nccc4ccncc34)cccc12)C(=O)O)c1c(F)cc(N2CCOC[C@H]2CC(F)F)cc1F
REPORTED MEASUREMENT: 0.1 to 1 µM

* * *

target: α4β7 integrin (Homo sapiens (Human), UniProt P13612+P26010); experiment: Integrin Adhesion Assay: Protocol 4 (MAdCAM-coated plate, RPMI-8866 cells with stable LOF mutation of the ITGB1 gene); format: cell-based; conditions: Protocol 4; RPMI-8866 cells with LOF mutation of ITGB1, MAdCAM; read-out: Mean IC50 α4β7 KO

MOLECULE: COc1cc(C(F)(F)F)c(CN2CCCCC2)cc1-c1cccc2c(C[C@H](NC(=O)c3c(C)cccc3F)C(=O)O)cccc12
IC50: 10 to 100 nM
//
MOLECULE: COc1cc(CN2CCCCC2)ccc1-c1cccc2c(C[C@H](NC(=O)C3(C(F)(F)F)CCN(CC(F)(F)F)CC3)C(=O)O)cccc12
IC50: < 10 nM
//
MOLECULE: COc1c(-c2cccc3c(C[C@H](NC(=O)C4(C(F)(F)F)CCN(CC(F)(F)F)CC4)C(=O)O)cccc23)c(=O)n(C)c2ccccc12
IC50: 10 to 100 nM
//
MOLECULE: O=C(O)[C@H](Cc1cccc2c(-c3nc(CN4CCCCC4)cc4ccccc34)cccc12)NC(=O)C1(C(F)(F)F)CCN(CC(F)(F)F)CC1
IC50: 10 to 100 nM
//
MOLECULE: CC1CCN(Cc2cnc(-c3cccc4c(C[C@H](NC(=O)C5(C(F)(F)F)CCN(CC(F)(F)F)CC5)C(=O)O)cccc34)c3ccccc23)CCC1(F)F (stereo partly drawn)
IC50: 10 to 100 nM
//
MOLECULE: CCOCc1cc(CN2CCCCC2)c(-c2cccc3c(C[C@H](NC(=O)C4(C(F)(F)F)CCN(CC(F)(F)F)CC4)C(=O)O)cccc23)c(OC)c1
IC50: 10 to 100 nM
